// data source = patent US20260265405A1

Biological target: T1, membrane-bound human MSLN (on CHOK1-hu MSLN cells and endogenously on COV644 cells) (human, UniProt Q13421 296-598)
T1 construct: whole, on cells; The assay field of each row says which cell line carried the protein; also called mesothelin; cell surface MSLN
T1 sequence (Q13421 other isoform, or with tags, fused parts or gaps limits assumed): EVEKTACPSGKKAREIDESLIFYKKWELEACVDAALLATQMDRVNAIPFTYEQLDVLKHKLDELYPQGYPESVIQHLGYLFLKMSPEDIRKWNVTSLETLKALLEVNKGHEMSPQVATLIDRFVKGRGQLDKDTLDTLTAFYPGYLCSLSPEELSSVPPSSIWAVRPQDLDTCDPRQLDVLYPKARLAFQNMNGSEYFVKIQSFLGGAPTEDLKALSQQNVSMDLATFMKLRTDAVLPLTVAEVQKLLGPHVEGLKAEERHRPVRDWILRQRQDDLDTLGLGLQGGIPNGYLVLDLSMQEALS
Test: flow cytometry on COV644 cells
measurement.label: TOP (MFI)
Answers are plain numbers, in MFI.

Recorded TOP (MFI), per entry:
[[record]]
binder = "PR300159-3 (antibody, V domains shown, PTM removal variant of PR300159: heavy chain G33A and G55A) VH: QVQLVESGGGVVQPGRSLRLSCAASGFTFSSDAMNWVRQAPGKGLEWVAVIWNDASNKYYADSVKGRFTISRDNSKNTLYLQMNSLRAEDTAVYYCARDRGPLWPLDYWGQGTLVTVSS VL: DIQMTQSPSTLSASVGDRVTITCRASQSISRWLAWYQQKPGKAPKLLIYKASSLESGVPSRFSGSGSGTEFTLTISNLQPDDFATFYCQQYNSYSRTFGQGTKVEIKR"
recorded_value = "2.06e+06"

[[record]]
binder = "PR300159-8 (antibody, V domains shown, PTM removal variant of PR300159: light chain N92A) VH: QVQLVESGGGVVQPGRSLRLSCAASGFTFSSDGMNWVRQAPGKGLEWVAVIWNDGSNKYYADSVKGRFTISRDNSKNTLYLQMNSLRAEDTAVYYCARDRGPLWPLDYWGQGTLVTVSS VL: DIQMTQSPSTLSASVGDRVTITCRASQSISRWLAWYQQKPGKAPKLLIYKASSLESGVPSRFSGSGSGTEFTLTISNLQPDDFATFYCQQYASYSRTFGQGTKVEIKR"
recorded_value = "2.15e+06"


Now for a further binder.
-- ask Bench note: what TOP (MFI) did PR300159-6 (antibody, V domains shown, PTM removal variant of PR300159: light chain S93T) VH: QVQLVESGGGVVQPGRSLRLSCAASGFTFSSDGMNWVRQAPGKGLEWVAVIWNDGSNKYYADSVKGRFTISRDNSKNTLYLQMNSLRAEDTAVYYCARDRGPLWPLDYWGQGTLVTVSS VL: DIQMTQSPSTLSASVGDRVTITCRASQSISRWLAWYQQKPGKAPKLLIYKASSLESGVPSRFSGSGSGTEFTLTISNLQPDDFATFYCQQYNTYSRTFGQGTKVEIKR show?
-- reply 2.19e+06
